biological target: human mGlu2 receptor (Homo sapiens, UniProt Q14416); construct: expressed in transfected cells; host or cells: CHO cells; assay: [35S]GTPγS binding assay, mGluR2 PAM; assay type: biochemical; conditions: in presence of glutamate at EC20; EC50 expressed in M; read-out: GTPγS - hmGluR2 PAM pEC50 (converted)
Sequence (Q14416 19-872): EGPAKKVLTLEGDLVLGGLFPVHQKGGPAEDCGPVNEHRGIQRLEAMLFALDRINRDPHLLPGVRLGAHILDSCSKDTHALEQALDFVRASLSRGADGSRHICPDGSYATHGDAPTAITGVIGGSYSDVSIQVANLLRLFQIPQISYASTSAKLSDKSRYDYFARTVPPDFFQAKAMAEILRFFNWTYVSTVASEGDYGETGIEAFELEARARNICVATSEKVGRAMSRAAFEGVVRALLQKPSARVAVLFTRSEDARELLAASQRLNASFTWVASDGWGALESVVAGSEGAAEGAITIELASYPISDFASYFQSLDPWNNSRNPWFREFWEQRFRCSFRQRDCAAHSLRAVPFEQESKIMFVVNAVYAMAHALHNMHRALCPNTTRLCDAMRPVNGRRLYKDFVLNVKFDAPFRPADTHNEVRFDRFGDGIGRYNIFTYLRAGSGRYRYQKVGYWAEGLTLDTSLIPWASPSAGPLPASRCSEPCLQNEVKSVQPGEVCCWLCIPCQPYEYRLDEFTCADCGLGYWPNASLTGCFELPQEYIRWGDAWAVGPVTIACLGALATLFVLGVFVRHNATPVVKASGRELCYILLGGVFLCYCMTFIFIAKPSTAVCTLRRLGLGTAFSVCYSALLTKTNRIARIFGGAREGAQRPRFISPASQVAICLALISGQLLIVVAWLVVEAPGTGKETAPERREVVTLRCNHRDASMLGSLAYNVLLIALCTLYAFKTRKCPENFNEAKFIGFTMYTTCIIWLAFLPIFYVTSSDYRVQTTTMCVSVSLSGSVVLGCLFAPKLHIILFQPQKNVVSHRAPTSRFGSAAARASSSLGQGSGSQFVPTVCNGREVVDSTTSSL
Measured EC50 accompanies every entry in the list below.
Report as a plain number; the unit nM is understood.

The examples below pair each entry with its known result.
compound="CC(Oc1ccc(F)cc1)c1ccn2c(CC3CC3)nnc2c1C(F)(F)F (single isomer, unassigned) [Compound 2]" observed_value=145
compound=C[C@H](Oc1cccc(F)c1F)c1ccn2c(CC3CC3)nnc2c1C(F)(F)F observed_value=50.1
compound=C[C@H](Oc1c(F)cccc1F)c1ccn2c(CC3CC3)nnc2c1C(F)(F)F observed_value=5.62
compound="CC(Oc1ccc(F)cc1)c1ccn2c(CC3CC3)nnc2c1C(F)(F)F (single isomer, unassigned) [Compound 3]" observed_value=1620
compound="CCOCc1nnc2c(C(F)(F)F)c(C(C)Oc3ccc(F)cc3F)ccn12 (single isomer, unassigned) [Compound 20]" observed_value=85.1
compound=C[C@H](Oc1cc(F)ccc1F)c1ccn2c(CC3CC3)nnc2c1C(F)(F)F observed_value=33.9
compound=C[C@H](Oc1cc(F)cc(F)c1)c1ccn2c(CC3CC3)nnc2c1C(F)(F)F observed_value=49
compound=C[C@H](Oc1ccc(F)cc1F)c1ccn2c(CC3CC3)nnc2c1C(F)(F)F observed_value=40.7
compound=COc1cc(F)ccc1O[C@@H](C)c1ccn2c(CC3CC3)nnc2c1C(F)(F)F observed_value=102
compound="CC(Oc1ccc(F)cc1)c1ccn2c(CC3CC3)nnc2c1C(F)(F)F (stereo not shown) [Compound 1]" observed_value=257

EC50 measured on `C[C@H](Oc1c(F)cc(F)cc1F)c1ccn2c(CC3CC3)nnc2c1C(F)(F)F` = 6.92

The recorded EC50 for CCOCc1nnc2c(C(F)(F)F)c(C(C)Oc3ccc(F)cc3F)ccn12 (single isomer, unassigned) [Compound 21] is 479

Measured EC50 of `Cc1cc(F)ccc1O[C@@H](C)c1ccn2c(CC3CC3)nnc2c1C(F)(F)F` : 29.5

====

target: human mGlu2 receptor (Homo sapiens, UniProt Q14416); construct: expressed in transfected cells; host or cells: CHO cells; test: [35S]GTPγS binding assay, mGluR2 PAM; format: biochemical; details: GTPγS - hmGluR2 PAM pEC50, in presence of glutamate at EC20; EC50 expressed in M
Recorded EC50, one value per entry.
Note: unit nM is implicit; provide only the numeric part.

Worked cases, EC50 given:
compound="CCOCc1nnc2c(C(F)(F)F)c(C(C)Oc3c(F)cc(F)cc3F)ccn12 (single isomer, unassigned) [Compound 23]" test_target="human mGlu2 receptor (Homo sapiens, UniProt Q14416)" unit_string=nM observed_value=1150
compound="CCOCc1nnc2c(C(F)(F)F)c(C(C)Oc3c(F)cc(F)cc3F)ccn12 (single isomer, unassigned) [Compound 22]" test_target="human mGlu2 receptor (Homo sapiens, UniProt Q14416)" unit_string=nM observed_value=24.5
compound="CC(Oc1ccc(F)cc1F)c1ccn2c(CC3CCC3)nnc2c1C(F)(F)F (single isomer, unassigned) [Compound 17]" test_target="human mGlu2 receptor (Homo sapiens, UniProt Q14416)" unit_string=nM observed_value=18.6

Read the next record carefully.
Reported EC50 of CC(Oc1ccc(F)cc1F)c1ccn2c(CC3CCC3)nnc2c1C(F)(F)F (stereo not shown) [Compound 16] : 28.8

Where do the numbers come from? From patent US9708315B2.
